measurement_description: chemical genetic growth profiling, strain panel (AID 1159580);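 note: tested at 20 µM; growth read once vehicle control cultures reached saturation at 30 °C; 1 = growth at the plate median or of vehicle wells; lower values mean less growth of the strain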
protocol_conditions: S. cerevisiae deletion strains, growth OD, locus YDR137W, strain rgp1, active compounds read low
Screen size: about 5,500 compounds; about 2,000 (36%) were called active. Another 18% or so got no clear call; they are omitted. Some of the results follow.
Please note: normalized growth exactly at 1 is false. Only values below 1 get true.

compound | group_label
Nc1ccc(S(=O)(=O)NC(=O)c2ccccc2)cc1 | true
CC(C)C[C@@H](CN)CC(=O)O | false
CN(C)CCCN1c2ccccc2Sc2ccccc21 | false

Ask: Strictly below 1: is that where normalized growth of CC(C)CCCC(C)[C@H]1CCC2C3CC=C4CC(=O)CC[C@]4(C)C3CC[C@@]21C (stereo not given in full) sits?
Reply: true

###

measurement_description: chemical genetic growth profiling, strain panel (AID 1159580)
protocol_conditions: S. cerevisiae deletion strains, growth OD, locus YNL207W, strain RIO2, active compounds read low
Hit rate of the full screen: of about 5,500 compounds, about 2,000 (36%) were called active. Not shown: some 18% with an inconclusive outcome. This is one part of the list.
measurement_kind: normalized growth
No unit in the answer, please; the number alone is enough.

compound | measurement_kind | reported_value
Cc1c(C)c(C)c(C(=O)c2ccc(N=Cc3cc(Cl)cc(Cl)c3O)cc2)c(C)c1C | normalized growth | 0.937

Consider the additional compound presented here.
Looking up CC(=O)c1ccc(Cl)c(N=Cc2cc(Br)cc(Br)c2O)c1 , I found its normalized growth recorded as 0.0975

###

measurement_description: chemical genetic growth profiling, strain panel (AID 1159580)
protocol_conditions: S. cerevisiae deletion strains, growth OD, locus YHR030C, strain SLT2, active compounds read low
About 2,000 (36%) of roughly 5,500 compounds were called active. Another 18% or so got no clear call; they are omitted. The list shows a part of the results.
Measured normalized growth values are reported for all entries that follow.
Just the number.

Use the examples below as a reference point.
molecule | normalized growth
Cc1cccc(Cn2nc(C(C)(C)C)cc2C(=O)O)c1 | 1.03
CN1CCN(C(=O)OC2c3nccnc3C(=O)N2c2ccc(Cl)cn2)CC1 (stereo not given) | 1.02
c1ccc(-c2nc(-c3cccs3)cs2)cc1 | 0.166
CSc1sc(C(=O)Sc2ccccc2)cc1S(=O)(=O)C(C)C | 0.997
CC(C)(C)c1cc(C(=O)NNc2cccc(Cl)c2)n(Cc2ccccc2)n1 | 0.862
CC(=O)c1cc(CC=C(C)C)c(O)c(CC=C(C)C)c1 | 0.878
O=C(O)C1C2CCC1C(O)C2 (stereo not given) | 0.98
CC(C)NCC(O)COc1ccc(COCCOC(C)C)cc1 (stereo not given) | 1.04
O=C(O)c1cc(O)c2c(c1)[C@@H]([C@@H]1c3cc(C(=O)O)cc(O)c3C(=O)c3c(O[C@H]4O[C@H](CO)[C@@H](O)[C@H](O)[C@H]4O)cccc31)c1cccc(O[C@H]3O[C@H](CO)[C@@H](O)[C@H](O)[C@H]3O)c1C2=O | 1.09

Shifting focus to the molecule that follows.
Quick note, normalized growth for Brc1ccc(-c2csc(-c3ccncc3)n2)cc1 landed at 0.312

###

measurement_description: chemical genetic growth profiling, strain panel (AID 1159580)
protocol_conditions: S. cerevisiae deletion strains, growth OD, locus YPL055C, strain LGE1
About 2,000 (36%) of roughly 5,500 compounds were called active. Another 18% or so got no clear call; they are omitted. No stated cut-off is given here; in the data, active means normalized growth mostly below about 0.91 (no sharp cut-off); inconclusive means no clear call, values can overlap the other calls; inactive means mostly above about 0.92. This is one part of the list.
The reply should be one of these categories: active, inactive

molecule | group_label
Cc1cc(C)c(Cn2nc(C(C)(C)C)cc2C(=O)Nc2cccc(C(F)(F)F)c2)c(C)c1 | inactive
Cc1cc(=O)n(-c2ccc([N+](=O)[O-])cc2)[nH]1 | active
O=C(O)c1cccnc1 | inactive
CC(=O)O[C@@H]1CC[C@@]2(C)C(C[C@@H](OC(C)=O)[C@@]3(C)C4=CC(=O)O[C@@H](c5ccoc5)[C@]4(C)CCC23)C1(C)C (stereo not given in full) | inactive
Cn1c(CSc2ccccc2)n[nH]c1=S | inactive
NC1=NCCN1CC(=O)O | inactive
O=C(O)c1cc[c]([Hg][Cl])cc1 | inactive
COC(=O)C/C(N)=C(\C#N)C(=O)OC | inactive

Ask: Could you kindly confirm the outcome this assay logged for CSc1sc(C#N)c2c1C(O)CCC2 (stereo not given) ?
Reply: inactive

Ask: In this assay, the call recorded for CC(=O)O[C@H]1CC[C@@]2(C)C(C[C@@H](OC(C)=O)[C@@]3(C)C4=CC(=O)O[C@@H](c5ccoc5)[C@]4(C)CCC23)C1(C)C (stereo not given in full) was what?
Reply: inactive

Ask: # lookup: test call for CCC1(O)CC2CN(CCc3c([nH]c4ccccc34)[C@@](C(=O)OC)(c3cc4c(cc3OC)N(C)C3[C@]45CCN4CC=C[C@@](CC)([C@@H](OC(C)=O)[C@]3(O)C(=O)OC)[C@H]45)C2)C1 (stereo not given in full)
Reply: inactive

###

measurement_description: chemical genetic growth profiling, strain panel (AID 1159580);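 note: tested at 20 µM; growth read once vehicle control cultures reached saturation at 30 °C; 1 = growth at the plate median or of vehicle wells; lower values mean less growth of the strain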
protocol_conditions: S. cerevisiae deletion strains, growth OD, locus YOR265W, strain rbl2, active compounds read low
In all, about 5,500 compounds went through this assay and about 2,000 (36%) were called active. Roughly 18% stayed inconclusive and do not appear here. The list shows a part of the results.
measurement_kind: normalized growth
Please give only the number in your answer, with no unit.

molecule | reported_value
O=C(O)c1ccccc1 | 0.981
C/C1=C/CC(C)(C)/C=C/C/C(C)=C/CC1 | 0.997
CC(C)CCCC(C)C1CCC2C3C[C@@H](O)[C@@]4(O)C[C@@H](O)CC[C@]4(C)C3CC[C@]12C (stereo partly specified) | 0.993
CCCSc1ccc2nc(NC(=O)OC)[nH]c2c1 | 1.02

// recorded normalized growth for O=C(O)c1cccnc1 : 1

// field: normalized growth; key: CC(=O)OCC(=O)[C@@]1(O)[C@H](C)CC2C3CCC4=CC(=O)C=C[C@]4(C)[C@@]3(F)[C@@H](O)C[C@@]21C (stereo partly specified) ; value = 0.982

// normalized growth lookup, molecule = Nc1ccc(S(=O)(=O)NC(=O)c2ccccc2)cc1 , result: 0.997

The value of normalized growth measured for the molecule O=C(O)c1cc(O)c2c(c1)[C@@H]([C@H]1c3cc(C(=O)O)cc(O)c3C(=O)c3c(O[C@H]4O[C@H](CO)[C@@H](O)[C@H](O)[C@H]4O)cccc31)c1cccc(O[C@H]3O[C@H](CO)[C@@H](O)[C@H](O)[C@H]3O)c1C2=O turned out to be 1.01

get_value(item= CC1=CC(=O)c2c(O)cccc2C1=O , readout=normalized growth) returns 0.0542

normalized growth reading for O=C(O)C1=CCCNC1 : 0.992

Quick note, normalized growth for CN[C@@H]1[C@H](O)[C@H](NC)[C@H]2O[C@@]3(O)C(=O)C[C@@H](C)O[C@H]3O[C@@H]2[C@H]1O landed at 1.01

Lookup result for CC(=O)c1cc(CC=C(C)C)c(O)c(CC=C(C)C)c1 ; measured normalized growth: 1.02

###

Recorded normalized growth values for a group of compounds are listed next.
measurement_description: chemical genetic growth profiling, strain panel (AID 1159580);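 note: tested at 20 µM; growth read once vehicle control cultures reached saturation at 30 °C; 1 = growth at the plate median or of vehicle wells; lower values mean less growth of the strain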
protocol_conditions: S. cerevisiae deletion strains, growth OD, locus YNL298W, strain CLA4, active compounds read low
The campaign covered roughly 5,500 compounds. About 2,000 (36%) were called active. Not shown: some 18% with an inconclusive outcome. The list shows a part of the results.
// no unit, no text: just the number

compound | measurement_kind | reported_value
CC(=O)c1cc(CC=C(C)C)c(O)c(CC=C(C)C)c1 | normalized growth | 0.979

Next item in the queue.
Form: compound = NC(Cn1ccc(=O)c(O)c1)C(=O)O (stereo not drawn) ; normalized growth = 0.987

###

measurement_description: chemical genetic growth profiling, strain panel (AID 1159580);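 note: tested at 20 µM; growth read once vehicle control cultures reached saturation at 30 °C; 1 = growth at the plate median or of vehicle wells; lower values mean less growth of the strain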
protocol_conditions: S. cerevisiae deletion strains, growth OD, locus YOL012C, strain htz1
Among all 5,500 compounds or so, about 2,000 (36%) were called active. Roughly 18% stayed inconclusive and do not appear here. The list shows a part of the results.
measurement_kind: normalized growth

molecule | reported_value
CCCc1c(OCCCCc2nn[nH]n2)ccc(C(C)=O)c1O | 1.54 (inactive)
NC(=O)NC(=O)Cc1ccccc1 | 1.28 (inactive)
COc1cc(C/C=C/c2ccccc2)c(OC)cc1O | 0.65 (inactive)

Input CC(C)=CCc1c2c(c3occ(-c4ccc(O)c(O)c4)c(=O)c3c1O)C=CC(C)(C)O2 . Output normalized growth: 0.238 (inactive)

// field: normalized growth; key: CC(=O)O[C@H]1CC[C@@]2(C)C(=CC(=O)C3C4CCC(C(C)CCCC(C)C)[C@@]4(C)CCC32)C1 (some centres undefined) ; value = 0.955 (inactive)

Summary for this molecule, Oc1c(Cl)cc(Cl)cc1Sc1cc(Cl)cc(Cl)c1O : normalized growth is 0.709 (inactive)

// field: normalized growth; key: COC(=O)/C(=C1\OC(=O)C(c2ccccc2)=C1O)c1ccccc1 ; value = 0.689 (inactive)

molecule O=C(OCc1ccccc1)c1ccccc1 , normalized growth observed: 1.34 (inactive)

Form: molecule = CC(=O)O[C@H]1CC[C@@]2(C)C(C[C@@H](OC(C)=O)[C@@]3(C)C4=CC(=O)O[C@@H](c5ccoc5)[C@]4(C)CCC23)C1(C)C (some centres undefined) ; normalized growth = 1.15 (inactive)

Given item CCCSc1ccc2nc(NC(=O)OC)[nH]c2c1 , the value recorded as its normalized growth is 0.603 (inactive)

The recorded normalized growth for entry CC(=O)OC1CCC2(C)C(CC(OC(C)=O)C3(C)C4=CC(=O)OC(c5ccoc5)C4(C)CCC23)C1(C)C (centres undefined) equals 1.25 (inactive)

Just so you know, measured normalized growth for COc1ccc([C@@H]2CC(=O)c3c(O)cc(O[C@@H]4O[C@H](CO[C@H]5O[C@@H](C)[C@H](O)[C@@H](O)[C@H]5O)[C@@H](O)[C@H](O)[C@H]4O)cc3O2)cc1O came out at 1.06 (inactive)

normalized growth reported for this molecule CC(C)CCCC(C)C1CCC2C3=CC[C@H]4C[C@@H](O)CC[C@]4(C)C3CC[C@@]21C (some centres undefined) : 0.805 (inactive)
